- condition_parameters: 298.15 K; 30000 kPa; Liquid; Vibrating tube method
readout: mass density (kg/m3)
Give bare numbers, in kg/m3.

Examples with answers:
Form: molecule = CCCCCO [pentan-1-ol] ; mass density = 830.3

Lookup result for CCCCCCO [hexan-1-ol] ; measured mass density: 833.8

What the record says about CCCCCCCCO [octan-1-ol] : mass density is 839.1

Value of measured mass density for the entry CCCCCCCCCO [nonan-1-ol] : 840.5

For this molecule ( CCCCCCCCCCCO [1-undecanol] ), measured mass density is 844.4

In plain terms, CCCO [propan-1-ol] has a documented mass density of 821.6

Lab note: CCCCCCCO [heptan-1-ol] gave mass density of 836.7

get_value(item= CCCCO [butan-1-ol] , readout=mass density) returns 826.6

Would you mind listing mass density for each of the following molecules?
1. CCO [ethanol]
2. CCCCCCCCCCO [decan-1-ol]

1: 809; 2: 842.5
